- Procedure Details: Quantitative High-Throughput drug screen in 47 multiple myeloma cell lines against the NCATS MIPE library collection: FR4_PLB cell viability assay (AID 1918924; also: nearly all actives have a fitted effect of over 35% in size)
- Settings: FR4_PLB myeloma cells viability, CellTiter-Glo ATP, 48 h; series mostly up to 45.8 µM
Results filed as inconclusive are left out. The source made the active and inactive calls. Calls follow the shape of the dose curve; as a rule, active = well fitted cell-killing curve with a large enough effect; inconclusive = small, poorly fitted or top-dose-only effect, or effect the other way; inactive = no such curve, though single readings can be large or run the other way.
Select the correct class. Options are active, inactive and nothing else.

Incoming: Record lookup: outcome of this test for O=c1ncn2nc(Sc3ccc(F)cc3F)ccc2c1-c1c(Cl)cccc1Cl ?
Outgoing: inactive

Incoming: Any idea what this test logged for O=C(c1cc(Cc2n[nH]c(=O)c3ccccc23)ccc1F)N1CCN(C(=O)C2CC2)CC1 ?
Outgoing: inactive

Incoming: Outcome logged for O=C1CCCC2=C1C(c1[nH]ncc1Cl)N=C(Nc1nc3ccccc3o1)N2 (stereo not given) in this assay:
Outgoing: inactive

Incoming: In this assay, the call recorded for Cn1cc(-c2ccc3nnc(C(F)(F)c4ccc5ncccc5c4)n3n2)cn1 was what?
Outgoing: inactive

Incoming: For CCCCCCCc1ccc(CCc2cccc(O)c2C(=O)O)cc1 , which call appears in the assay record?
Outgoing: inactive

Incoming: How did this test come out for Cc1[nH]c(=O)c(C#N)cc1-c1ccc2nccn2c1 ?
Outgoing: inactive

Incoming: Can you look up the reported call for O=C(Nc1ccc(F)c(C(F)(F)F)c1)Nc1nnc(-c2ccncc2)s1 for me?
Outgoing: active

Incoming: What outcome does the record of this test show for Nc1nc2c(ncn2COCCO)c(=O)[nH]1 ?
Outgoing: inactive

Incoming: Would you mind telling me which call this test gave COCC(=O)NCC=Cc1ccc2ncnc(Nc3ccc(Oc4ccc(C)nc4)c(C)c3)c2c1 ?
Outgoing: active

Incoming: Check the results log: what was the call for O=C(C=Cc1ccc(/C=C/C(=O)Nc2ccc(C3=NCCN3)cc2)cc1)Nc1ccc(C2=NCCN2)cc1 ?
Outgoing: inactive
